# TEST TARGET: T1, recombinant human CTGF protein (R&D Systems, SEQ ID NO: 79) (human, UniProt P29279 27-349)
# T1 construct: Bought; also called human CTGF/CNN2; huCTGF
# T1 sequence: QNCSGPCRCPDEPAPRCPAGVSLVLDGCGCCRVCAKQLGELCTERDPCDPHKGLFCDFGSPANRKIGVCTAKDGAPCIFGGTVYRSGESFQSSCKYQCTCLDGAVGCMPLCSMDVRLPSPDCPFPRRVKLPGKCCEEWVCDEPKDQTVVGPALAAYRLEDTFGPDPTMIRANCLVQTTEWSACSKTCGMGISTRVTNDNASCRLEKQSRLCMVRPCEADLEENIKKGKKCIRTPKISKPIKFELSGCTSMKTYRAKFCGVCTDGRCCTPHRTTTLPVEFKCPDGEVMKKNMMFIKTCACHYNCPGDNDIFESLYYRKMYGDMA
# PROTOCOL TEXT: ELISA, coated target
MEASUREMENT KIND: EC50 (nM)
Answer format: numeric, nM implied, no suffix.

BINDER	EC50 (nM)
lipocalin mutein of SEQ ID NO: 29 (designed binder, Parent hNGAL mutein; also called hNGAL mutein) QDSTSDLIPAPPLSKVPLQQNFQDNQFHGKWYVVGWAGNIKLREDKDPFKMSATIYELKEDKSYNVTEVVFEQKKCHYIIKTFVPGSQPGEFTLGDIKSPPGETSSLVRVVSTNYNQHAMVFFKKVFQNREFFWITLYGRTKELTSELKENFIRFSKSLGLPENHIVFPVPIDQCIDGSAWSHPQFEK	11

Proceed to the following item.
Give EC50 for lipocalin mutein of SEQ ID NO: 7 (designed binder, Parent hNGAL mutein; also called hNGAL mutein) QDSTSDLIPAPPLSKVPLQQNFQDNQFHGKWYVVGLAGNYGLRTDKRPSKMFATIYELKEDKSYDVTSVRFEQERCHYTIRTFVPGSQPGEFTTGSIKSRPGQTSSLVRVVSTNYNQHAMVFFKSVIQNREYFAITLYGRTKELTSELKENFIRFSKSLGLPENHIVFPVPIDQCIDGSAWSHPQFEK 34
